Experimental Protocol: Toxicity liver stage against HepG2, at 10uM
Format: cell-based
Set-up: test concentration 10 uM, cell line HepG2-A16-CD81EGFP
Run Conditions: human, HepG2-A16-CD81EGFP cells; read-out: INHIBITION
What cytotoxicity at 10 µM was measured for each of the following?
Give bare numbers, in %.

                                   compound  endpoint_unit  reported
0  COCC1CN(C(=O)c2ccoc2C)Cc2nccn2C1 (centres undefined)              %       6.1
1  CN(C(=O)CN1CCCC1c1cnn(C)c1)C(C)(C)C#N (centres undefined)              %     -1.37
2  COC1(CNC(=O)c2ccc3nsnc3c2)CCSC1 (centres undefined)              %     -1.36

Consider the additional compound presented here.
response.value for CNC(=O)CN1CCC(OCc2ccc(Cl)c(Cl)c2)CC1 (field: cytotoxicity at 10 µM) = -14.4

###

Experimental Protocol: Toxicity liver stage against HepG2, at 10uM
Assay type: cell-based
Set-up: test concentration 10 uM, cell line HepG2-A16-CD81EGFP
Run Conditions: human, HepG2-A16-CD81EGFP cells; read-out: INHIBITION
Record form. Attribute: cytotoxicity at 10 µM. Fill in for each entry.
Answers are plain numbers, in %.

Examples with answers:
>>> df
                                   compound  endpoint_unit  reported
0  COC[C@@]12CCO[C@@H]1CCN(C(=O)Cc1ccccc1F)C2              %     -7.27
1  O=C(C1=CCCC1)N1CCO[C@H]2[C@@H](Oc3ccccn3)CC[C@@H]21              %     0.179
2  COc1cccc(C(=O)N2CCN(Cc3nc(C(C)C)no3)CC2)c1              %     -18.7
3  COc1nc2ccn(CCc3cc(O)nc(C)n3)c(=O)c2cc1C#N              %      10.9
4  O=C(CSC1CCCC1)N1CCN(C(=O)C2CC2c2cccs2)CC1 (stereo not given)              %      4.48

Respectfully, I request cytotoxicity at 10 µM for each entry included below.
1. O=C(CCc1cccc(F)c1F)N1CCCC(n2cncn2)C1 (stereo not given)
2. O=C(Nc1nc2c(s1)CN(S(=O)(=O)C1CC1)CC2)c1ccc(Cl)s1
3. c1cncc(N2CCOCC3(CN(Cc4cccs4)CCO3)C2)c1 (stereo not given)
4. COCCCNC(=O)Nc1c(C)cccc1C(C)C
5. Cc1cc(C)n(CC2(CNC(=O)C(c3ccc(F)cc3)N(C)C)CC2)n1 (stereo not given)
6. Cc1cc(NC2CCc3nc(C)nn3C2)n2ncnc2n1 (stereo not given)

Found:
[-20.2, 21.3, -79.7, 2.66, 0.438, -6.29]

###

Assign cytotoxicity at 10 µM to each entry below.
Experimental Protocol: Toxicity liver stage against HepG2, at 10uM
Format: cell-based
Design: test concentration 10 uM, cell line HepG2-A16-CD81EGFP
Run Conditions: human, HepG2-A16-CD81EGFP cells; read-out: INHIBITION
Answers are plain numbers, in %.

                                   molecule             value_kind  reported
0  COC(CNC(=O)c1ccc(NC(C)=O)cc1)c1cccc(Cl)c1 (stereo unspecified)  cytotoxicity at 10 µM      7.72
1  Cc1cnn(CC2CCCN2c2ccc(C#N)cn2)c1 (stereo unspecified)  cytotoxicity at 10 µM        14
2  CC(C(=O)O)N1CC2(CCC1=O)CCN(CCSc1ccccc1)CC2 (stereo unspecified)  cytotoxicity at 10 µM      2.57
3  Cc1cc(CNc2cncc(C(=O)N(C)C)n2)c2[nH]c(C)c(C)c2c1  cytotoxicity at 10 µM     -12.2
4  Cc1cn[nH]c1C1COCCN1C(=O)c1cc(F)ccc1F (stereo unspecified)  cytotoxicity at 10 µM    -0.658
5     CC(C)(C)NC(=O)COc1ccc(CNCc2ccccn2)cc1  cytotoxicity at 10 µM     -11.5
6  Cn1nc(C(=O)N2CCOCC2)cc1C(=O)Nc1ccc(Cl)cc1Cl  cytotoxicity at 10 µM     -7.41
7   O=C(Nc1cnc2n1CCCC2)c1cccc(OCC(F)(F)F)c1  cytotoxicity at 10 µM    -0.651
8  CCN(CC)C(=O)CN1CCCC(c2nc(C)c3c(n2)N(C)CCC3)C1 (stereo unspecified)  cytotoxicity at 10 µM      10.2
9    Cc1nn2cccnc2c1C(=O)NCc1ccnc(OCC2CC2)c1  cytotoxicity at 10 µM     -41.6

For each of the items listed, what is its cytotoxicity at 10 µM?
1. Cc1ccc(CN2CCC3(CC2)NC(=O)CC3c2ccccc2)s1 (stereo unspecified)
2. Cc1nc(C)n(CC2CCCN(CCCS(=O)(=O)N(C)C)C2)n1 (stereo unspecified)
3. c1ccc(NCc2cccc(OCCN3CCOCC3)c2)nc1
4. O=C1CC(c2ccsc2)c2sc(C(=O)O)c(-c3ccc(F)cc3)c2N1 (stereo unspecified)
5. Cc1cccc(C2(O)CCN(Cc3ccccc3N3CCCC3)CC2)c1

Found:
1: -1.39; 2: -3.15; 3: 0.174; 4: 4.4; 5: 10.6

For reference, reported cytotoxicity at 10 µM for Cc1cc(NC(=O)CN2CCOC(Cn3nc(C)cc3C)C2)n(C)n1 (stereo unspecified) stands at -7.91

Taken from ChEMBL document CHEMBL4513216.
